- TARGET UNDER TEST: OCT2 (Homo sapiens)
- PROTOCOL DETAILS: in vitro
- CONDITIONS: human, IC50 (μM) (substrate Oxaliplatin)
Binary call on potency estimated from few doses at 30 min with cut-off 4 µM: strictly below means fulfilled, and equality or higher means not fulfilled.

Example entries begin here.
COMPOUND	QUALITATIVE LABEL
Cc1ccc(NC(=O)c2ccc(CN3CCN(C)CC3)cc2)cc1Nc1nccc(-c2cccnc2)n1	fulfilled
Clc1ccc(COC(Cn2ccnc2)c2ccc(Cl)cc2Cl)c(Cl)c1 (stereo not drawn)	fulfilled

Query block: API: query returns whether the compound falls strictly under 4 µM in potency estimated from few doses at 30 min. Query: NC(=O)OCC(O)COc1ccc(Cl)cc1 (stereo not drawn) [Chlorphenesin Carbamate]
Result block: not fulfilled

Query block: In plain terms, does `CN/C(=N/CCSCc1nc[nH]c1C)NC#N` come in under 4 µM for potency estimated from few doses at 30 min?
Result block: not fulfilled

Query block: Dear colleague, could you confirm whether potency estimated from few doses at 30 min of `CC(C)[N+](C)(CCOC(=O)C1c2ccccc2Oc2ccccc21)C(C)C` falls below 4 µM? Thanks.
Result block: fulfilled

Query block: Item `N=C(N)c1ccc(OCCCCCOc2ccc(C(=N)N)cc2)cc1` : potency estimated from few doses at 30 min beneath 4 µM, strictly?
Result block: fulfilled

----------
- TARGET UNDER TEST: UniProtKB O15244
- Sequence (O15244 1-555): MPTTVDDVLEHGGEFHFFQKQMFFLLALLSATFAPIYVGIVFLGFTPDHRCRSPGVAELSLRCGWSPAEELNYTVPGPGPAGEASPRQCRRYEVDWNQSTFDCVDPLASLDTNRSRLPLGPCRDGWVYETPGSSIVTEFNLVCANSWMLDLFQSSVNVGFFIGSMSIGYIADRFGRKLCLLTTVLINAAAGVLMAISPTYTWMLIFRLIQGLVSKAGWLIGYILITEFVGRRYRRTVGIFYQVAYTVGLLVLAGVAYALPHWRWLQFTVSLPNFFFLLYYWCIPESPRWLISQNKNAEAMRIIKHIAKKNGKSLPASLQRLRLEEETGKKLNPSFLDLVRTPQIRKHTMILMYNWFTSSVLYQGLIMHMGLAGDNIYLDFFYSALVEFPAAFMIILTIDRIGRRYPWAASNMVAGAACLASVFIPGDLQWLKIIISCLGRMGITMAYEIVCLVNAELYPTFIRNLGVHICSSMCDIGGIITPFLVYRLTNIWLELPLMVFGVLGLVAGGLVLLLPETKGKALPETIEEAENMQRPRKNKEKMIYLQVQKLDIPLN
- PROTOCOL DETAILS: Inhibition of OCT2-mediated oxaliplatin uptake in transfected MDCK-II cells (protein-free HBSS)
- CONDITIONS: read-out: IC50 (μM) (substrate Oxaliplatin); OCT2-mediated uptake; oxaliplatin 10 μM in protein-free HBSS; estimated from single concentration or nonlinear regression
ASSAY ENDPOINT: potency estimated from few doses

Query block: For the compound shown here, CC(C)[N+]1(C)[C@@H]2CC[C@H]1CC(OC(=O)C(CO)c1ccccc1)C2.[Br-] (stereo partly shown) [Ipratropium•Br] , give the reported potency estimated from few doses.
Result block: < 0.1 µM

----------
- TARGET UNDER TEST: UniProtKB O15244
- PROTOCOL DETAILS: Inhibition of OCT2-mediated metformin uptake in transfected MDCK-II cells
- CONDITIONS: human
ASSAY ENDPOINT: inhibition at 5 min, 50 μM
Respond with a number, then the unit of measure.

MOLECULE	TARGET UNDER TEST	REPORTED
NC1=NCC2c3ccccc3Cc3ccccc3N12 (centres unmarked) [Epinastine]	UniProtKB O15244	92%

Switching to the query record.
Query block: Dear colleague, I am looking for the recorded inhibition at 5 min, 50 μM of the following molecule: `C[N+]1(C)[C@@H]2C[C@@H](OC(=O)C(O)(c3cccs3)c3cccs3)C[C@H]1[C@@H]1O[C@@H]12`
Result block: 95%

Every entry's value here was drawn from patent US11197862B2.
